B1: LINE1-mini (parent)
chain: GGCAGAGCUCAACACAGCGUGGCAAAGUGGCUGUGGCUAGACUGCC

# Variants of: B1
# assay-name: self-cleavage, relative activity (ratio to wild type); higher = more cleavage; in vitro, sequencing; the parent is a self-cleaving ribozyme
measured-metric: self-cleavage
// response body must contain only the number

*Q* # return recorded self-cleavage for entry A14C C46G
*A* 0.08

*Q* # return recorded self-cleavage for entry A11C U28A
*A* 0.06

*Q* # return recorded self-cleavage for entry C3G G21U
*A* 0.48

*Q* # return recorded self-cleavage for entry U20C G36C
*A* 0.07

*Q* # return recorded self-cleavage for entry C15A G44A
*A* 0.08

*Q* # return recorded self-cleavage for entry G21C C23A
*A* 0.43

*Q* # return recorded self-cleavage for entry C8U A26C
*A* 0.21

*Q* # return recorded self-cleavage for entry U20C G44C
*A* 0.09

*Q* # return recorded self-cleavage for entry G1C G44A
*A* 0.06

*Q* # return recorded self-cleavage for entry G29A U34G
*A* 0.38

*Q* # return recorded self-cleavage for entry G2U G40U
*A* 0.04

*Q* # return recorded self-cleavage for entry C18G U20A
*A* 0.41

*Q* # return recorded self-cleavage for entry G29A U32G
*A* 0.46

*Q* # return recorded self-cleavage for entry G36A G44U
*A* 0.15

*Q* # return recorded self-cleavage for entry C37U G40A
*A* 0.14

*Q* # return recorded self-cleavage for entry C13A G36C
*A* 0.06

*Q* # return recorded self-cleavage for entry G1C G21U
*A* 0.17

*Q* # return recorded self-cleavage for entry A11U G30A
*A* 0.17

*Q* # return recorded self-cleavage for entry U20C C46G
*A* 0.47

*Q* # return recorded self-cleavage for entry G1U A26U
*A* 0.34

*Q* # return recorded self-cleavage for entry A11C G27C
*A* 0.04

*Q* # return recorded self-cleavage for entry G7C A16G
*A* 0.06

The reported numbers originate from the RNAGym collection of RNA variant scans (doi:10.7554/elife.90254).
